# System: Rattus norvegicus
# TEST NAME: Toxicity in Wistar albino rat assessed as ulcer index at 75 mg/kg/day, po administered for 4 days measured after 12 hrs fasting post-last dose
# Assay type: organism-based
# Parameters: route oral
# CONDITION: in vivo
MEASURED QUANTITY: UI

Examples with their reported UI follow.
Measured UI, "CSc1nn(-c2ccc(S(N)(=O)=O)cc2)c2nc(Nc3ccccc3)n(-c3ccccc3)c(=O)c12" : 7.83

Measured UI, O=C([O-])Cc1ccccc1Nc1c(Cl)cccc1Cl.[Na+] [DICLOFENAC SODIUM] : 39.17

Measured UI, "CSc1nn(-c2ccccc2)c2nc(Nc3ccccc3)n(-c3ccccc3)c(=O)c12" : 4.66

New cases:
Measured UI, "CSc1nn(-c2ccc([N+](=O)[O-])cc2)c2nc(Nc3ccccc3)n(-c3ccccc3)c(=O)c12" : 7.5

Measured UI, "Cc1ccc(Nc2nn(-c3ccc([N+](=O)[O-])cc3)c3nc(Nc4ccccc4)n(-c4ccccc4)c(=O)c23)cc1" : 16.72

Measured UI, Cc1ccc(-c2cc(C(F)(F)F)nn2-c2ccc(S(N)(=O)=O)cc2)cc1 [CELECOXIB] : 9.58

Measured UI, "Cc1ccc(Nc2nn(-c3ccccc3)c3nc(Nc4ccccc4)n(-c4ccccc4)c(=O)c23)cc1" : 3.2

Measured UI, "Cc1ccc(Nc2nn(-c3ccc(S(N)(=O)=O)cc3)c3nc(Nc4ccccc4)n(-c4ccccc4)c(=O)c23)cc1" : 9.5
